# target_or_system: Protein cereblon/Androgen receptor (Homo sapiens, UniProt P10275+Q96SW2)
# Sequence (P10275 whole entry, looked up): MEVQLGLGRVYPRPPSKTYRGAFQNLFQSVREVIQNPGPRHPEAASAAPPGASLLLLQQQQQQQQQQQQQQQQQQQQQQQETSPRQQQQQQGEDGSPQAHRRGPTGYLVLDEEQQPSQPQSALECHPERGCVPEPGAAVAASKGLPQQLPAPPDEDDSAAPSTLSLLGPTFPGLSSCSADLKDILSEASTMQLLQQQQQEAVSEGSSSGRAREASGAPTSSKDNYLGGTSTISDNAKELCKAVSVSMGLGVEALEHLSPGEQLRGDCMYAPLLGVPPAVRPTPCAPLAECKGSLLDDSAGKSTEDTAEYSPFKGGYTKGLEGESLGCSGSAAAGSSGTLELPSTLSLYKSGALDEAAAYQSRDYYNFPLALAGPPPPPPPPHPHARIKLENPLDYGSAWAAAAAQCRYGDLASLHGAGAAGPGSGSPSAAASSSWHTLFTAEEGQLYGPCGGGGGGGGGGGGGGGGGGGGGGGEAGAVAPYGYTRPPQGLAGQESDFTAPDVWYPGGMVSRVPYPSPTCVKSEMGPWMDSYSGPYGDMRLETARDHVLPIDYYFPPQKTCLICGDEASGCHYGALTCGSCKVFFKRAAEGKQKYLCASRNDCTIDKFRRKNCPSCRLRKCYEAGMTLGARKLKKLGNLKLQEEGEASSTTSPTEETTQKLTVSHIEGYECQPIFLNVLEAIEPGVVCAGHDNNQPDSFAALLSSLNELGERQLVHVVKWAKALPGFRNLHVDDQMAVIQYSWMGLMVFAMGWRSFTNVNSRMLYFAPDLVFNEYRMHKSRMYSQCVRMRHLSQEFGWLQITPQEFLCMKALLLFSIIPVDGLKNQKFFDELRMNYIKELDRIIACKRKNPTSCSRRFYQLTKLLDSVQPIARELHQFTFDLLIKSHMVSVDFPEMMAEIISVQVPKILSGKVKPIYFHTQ
# Sequence (Q96SW2 whole entry, looked up): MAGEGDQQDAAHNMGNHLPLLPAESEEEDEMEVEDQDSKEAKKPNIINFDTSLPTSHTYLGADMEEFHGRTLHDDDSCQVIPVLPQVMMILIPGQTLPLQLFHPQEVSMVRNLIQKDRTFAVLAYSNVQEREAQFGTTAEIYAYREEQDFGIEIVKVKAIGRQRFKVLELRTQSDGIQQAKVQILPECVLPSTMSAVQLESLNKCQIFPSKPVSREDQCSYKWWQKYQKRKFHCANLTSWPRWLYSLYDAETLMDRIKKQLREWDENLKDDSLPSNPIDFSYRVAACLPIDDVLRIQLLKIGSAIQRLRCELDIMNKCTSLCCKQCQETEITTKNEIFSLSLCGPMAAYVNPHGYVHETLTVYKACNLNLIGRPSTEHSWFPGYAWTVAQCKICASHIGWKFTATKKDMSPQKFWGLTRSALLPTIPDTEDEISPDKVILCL
# test_description: PROTAC activity at CRBN/AR in human 22Rv1 cells assessed as induction of AR degradation at 5 uM incubated for 24 hrs by Western blot analysis relative to control
# Type: cell-based
Rule: Activity of 30% or more gives Satisfied; anything lower gives Not satisfied.

compound	category_label
CC(C)(c1ccc(OCC2CCN(C3CN(C(=O)CCNc4ccc5c(c4)C(=O)N(C4CCC(=O)NC4=O)C5=O)C3)CC2)cc1)c1ccc(OC[C@H](O)CCl)cc1 (some centres undefined)	Not satisfied
CC(C)(c1ccc(OCC2CCN(C(=O)CCCCCCCNc3cccc4c3C(=O)N(C3CCC(=O)NC3=O)C4=O)CC2)cc1)c1ccc(OC[C@H](O)CCl)cc1 (some centres undefined)	Not satisfied
CC(C)(c1ccc(OCC2CCN(C(=O)CCCCC#Cc3ccc4c(c3)C(=O)N(C3CCC(=O)NC3=O)C4=O)CC2)cc1)c1ccc(OC[C@H](O)CCl)cc1 (some centres undefined)	Not satisfied
CC(C)(c1ccc(OCC2CCN(C(=O)CCCCCCCNc3ccc4c(c3)C(=O)N(C3CCC(=O)NC3=O)C4=O)CC2)cc1)c1ccc(OC[C@H](O)CCl)cc1 (some centres undefined)	Not satisfied
CC(C)(c1ccc(OCC2CCN(C3CN(C(=O)CCCCNc4ccc5c(c4)C(=O)N(C4CCC(=O)NC4=O)C5=O)C3)CC2)cc1)c1ccc(OC[C@H](O)CCl)cc1 (some centres undefined)	Not satisfied
CC(C)(c1ccc(OCC2CCN(C(=O)CCCCCNc3cccc4c3C(=O)N(C3CCC(=O)NC3=O)C4=O)CC2)cc1)c1ccc(OC[C@H](O)CCl)cc1 (some centres undefined)	Not satisfied
CC(C)(c1ccc(OCC2CCN(C(=O)CCCCOc3ccc4c(c3)C(=O)N(C3CCC(=O)NC3=O)C4=O)CC2)cc1)c1ccc(OC[C@H](O)CCl)cc1 (some centres undefined)	Satisfied
CC(C)(c1ccc(OCC2CCN(C(=O)CCCCCOc3ccc4c(c3)C(=O)N(C3CCC(=O)NC3=O)C4=O)CC2)cc1)c1ccc(OC[C@H](O)CCl)cc1 (some centres undefined)	Satisfied
CC(C)(c1ccc(OCC2CCN(C(=O)CCCCCNc3ccc4c(c3)C(=O)N(C3CCC(=O)NC3=O)C4=O)CC2)cc1)c1ccc(OC[C@H](O)CCl)cc1 (some centres undefined)	Satisfied
CC(C)(c1ccc(OCC2CCN(C(=O)CCCCCCOc3ccc4c(c3)C(=O)N(C3CCC(=O)NC3=O)C4=O)CC2)cc1)c1ccc(OC[C@H](O)CCl)cc1 (some centres undefined)	Not satisfied
CC(C)(c1ccc(OCC2CCN(C3CN(C(=O)CCCNc4ccc5c(c4)C(=O)N(C4CCC(=O)NC4=O)C5=O)C3)CC2)cc1)c1ccc(OC[C@H](O)CCl)cc1 (some centres undefined)	Not satisfied
CC(C)(c1ccc(OCC2CCN(C3CN(C(=O)CNc4ccc5c(c4)C(=O)N(C4CCC(=O)NC4=O)C5=O)C3)CC2)cc1)c1ccc(OC[C@H](O)CCl)cc1 (some centres undefined)	Not satisfied
CC(C)(c1ccc(OCC2CCN(C(=O)CCCCCCNc3ccc4c(c3)C(=O)N(C3CCC(=O)NC3=O)C4=O)CC2)cc1)c1ccc(OC[C@H](O)CCl)cc1 (some centres undefined)	Satisfied
CC(C)(c1ccc(OCC2CCN(C(=O)CCCCNc3ccc4c(c3)C(=O)N(C3CCC(=O)NC3=O)C4=O)CC2)cc1)c1ccc(OC[C@H](O)CCl)cc1 (some centres undefined)	Not satisfied
